TARGET_OF_ASSAY: T1, Rb^P A488V (human, UniProt P06400 380-788, A488V)
T1 construct: also called variant 14
T1 sequence (looked up): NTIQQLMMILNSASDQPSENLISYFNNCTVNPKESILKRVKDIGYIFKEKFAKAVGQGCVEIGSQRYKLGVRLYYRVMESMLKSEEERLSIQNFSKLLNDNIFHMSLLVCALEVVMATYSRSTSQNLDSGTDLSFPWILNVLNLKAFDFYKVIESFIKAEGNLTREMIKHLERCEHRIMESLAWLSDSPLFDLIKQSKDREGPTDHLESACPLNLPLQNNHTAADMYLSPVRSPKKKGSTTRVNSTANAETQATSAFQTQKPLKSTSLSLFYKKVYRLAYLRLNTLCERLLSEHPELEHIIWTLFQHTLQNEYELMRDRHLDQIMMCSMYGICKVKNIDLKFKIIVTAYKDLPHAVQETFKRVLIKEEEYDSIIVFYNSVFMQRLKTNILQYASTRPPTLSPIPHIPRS
ASSAY_TEXT: fluorescence polarisation; 37 °C, after the 25 °C reading ramped over 7 min to 37 °C and 2 min incubation; unlabeled Rb^P against 1.5 nM TMR-E2F1^TD or 7.5 nM TMR-E7^LxCxE; 25 mM Tris pH 8.0, 200 mM NaCl, 1 mM DTT, 0.1% Tween-20; apparent Kd
CONDITION_LABEL: both partners purified
pKd: −log10 of the molar value. No end group written: not given here. TMR = tetramethyl rhodamine dye

BINDER | pKd
{TMR}-GEGIRDLFDCDFGDLTPLD (also called E2F^TD; source: synthetic peptide, bought: GenScript) [TMR-E2F1^TD, peptide of the E2F1 transactivation domain] | 7.11
DLYCYEQLN (also: TMR label, position not given here, source: synthetic peptide, bought: GenScript) [TMR-E7^LxCxE, LxCxE peptide of the E7 oncoprotein from HPV] | 7.72
